test system: MOLT-4 leukemia; experiment: NCI tumour cell line growth inhibition, 48 h

compound: Cn1ccnc1Sc1ccc(/C=N/NC(=O)c2ccccc2[N+](=O)[O-])cc1[N+](=O)[O-]
system.under.test: MOLT-4 leukemia
TGI: > 100 µM
//
compound: CCC(=C(C#N)C#N)c1cc(OC)c(OC)c(OC)c1
system.under.test: MOLT-4 leukemia
TGI: > 100 µM
//
compound: COc1cccc(NC(=O)CC(=O)N2NC(c3ccccc3)C(N=Nc3cccc(C(=O)O)c3)C2=O)c1 (stereo not given)
system.under.test: MOLT-4 leukemia
TGI: > 100 µM
//
compound: CNC(=O)N(C1=NCC(C)S1)c1ccc(C)c(C)c1 (stereo not given)
system.under.test: MOLT-4 leukemia
TGI: > 59.2 µM
//
compound: COc1ccc(/C(=N\N=C(N)N)C(c2ccc(OC)cc2)C2OC(=O)c3ccccc32)cc1 (stereo not given)
system.under.test: MOLT-4 leukemia
TGI: > 100 µM
//
compound: C=CC(=O)NC(O)(C(=O)OCC)C(F)(F)F (stereo not given)
system.under.test: MOLT-4 leukemia
TGI: > 100 µM
//
compound: CN([O-])c1nc(N(C)[O-])nc(N2CCOCC2)n1.CN([O-])c1nc(N(C)[OH2+])nc(N2CCOCC2)n1.[Fe+3]
system.under.test: MOLT-4 leukemia
TGI: > 100 µM
//
compound: CN(C)c1ccc(/C=C/c2ccc3ccccc3[n+]2C)cc1
system.under.test: MOLT-4 leukemia
TGI: 4.53 µM
//
compound: CCCNC(=O)C(C)(Cl)C(=O)c1ccccc1O (stereo not given)
system.under.test: MOLT-4 leukemia
TGI: > 100 µM
//
compound: C=C(C)C(=O)OC1CC2(C)OC(=CC2=O)C(C)CC2OC(=O)C(=C)C12 (stereo not given)
system.under.test: MOLT-4 leukemia
TGI: > 35.1 µM

----------
tested on: UO-31 renal; assay: NCI tumour cell line growth inhibition, 48 h; in the data active = GI50 below about 0.43 µM; inactive = the rest
Outcome codes: Yes for active, No for inactive

compound: COc1ccc2nc3cc(Cl)ccc3c(NCCCCCN3CCCCC3)c2c1
cat: No

compound: O=C(O)CCCn1c(SCc2c(Cl)cccc2Cl)nc2ccsc2c1=O
cat: No

compound: O[N+]1=CC=CCC1=S.On1ccccc1=S.[Zn]
cat: No

compound: Cc1c2cnccc2c(C)c2c1c1cc(CO)ccc1n2C
cat: Yes

compound: Cc1nc2cc(-n3c(-c4ccc(F)cc4)nc4ccccc4c3=O)ccc2n1Cc1ccccc1
cat: No

compound: COc1ccc(/C=N/C2=C(C#N)C(c3ccccc3)c3c(ccc4ccccc34)O2)cc1 (centres undefined)
cat: No

compound: CN1CCN(c2ccc3nc(-c4c5cccccc-5[nH]c4=O)[nH]c3c2)CC1
cat: No

compound: C[C@@]1(CO)[C@H](O)CC[C@@]2(C)[C@H]1CC[C@H]1C[C@@H]3C[C@@]12CC[C@@]3(O)COC(=O)CN
cat: No

compound: CC(=O)c1cc2c(c(O)c1C)C(=O)C(=O)c1c(O)cccc1-2
cat: Yes

----------
system: UO-31 renal; assay: NCI tumour cell line growth inhibition, 48 h

molecule: CN(C)CCNc1ccc2c(=O)n(CCN(C)C)c(=O)n3c4ccccc4c(=O)c1c23
TGI: 1.8 µM
//
molecule: COC(=O)[C@@H](C[C@H](Cc1ccccc1)NC(=O)c1csc([C@@H](C[C@H](C(C)C)N(C)C(=O)[C@@H](NC(=O)[C@H]2CCCCN2C)C(C)C)OC(C)=O)n1)NC(=O)OCc1ccccc1
TGI: > 8.33 µM
//
molecule: COc1cccc2c(Nc3ccc(S(=O)(=O)Nc4ncccn4)cc3)c3ccc([N+](=O)[O-])cc3nc12
TGI: > 100 µM
//
molecule: CCN(CC)c1ccc(/C=C2\SC(=O)C(Nc3nnc(-c4cccnc4SCc4ccccc4)o3)C2=O)cc1 (centres undefined)
TGI: > 100 µM
//
molecule: c1ccc2c(c1)SC1=Nc3sc4ccccc4[n+]3CN12
TGI: > 100 µM
//
molecule: CN1CCN(CCn2c3c4ccccc4ccc3c3oc(=O)c4ccccc4c32)CC1
TGI: 11.9 µM
//
molecule: Cn1c(=O)cc(NNc2ccccc2)[nH]c1=O
TGI: > 100 µM
//
molecule: Cc1ccc(-c2cc(C(=O)N3N=C(c4ccc(N)cc4)CC3c3ccc(Cl)cc3)c3ccccc3n2)cc1 (centres undefined)
TGI: > 100 µM
//
molecule: COc1cccc(/C=N/Nc2ncnc3c2cnn3-c2cccc(OC)c2)c1
TGI: > 25 µM

----------
system: RXF 393 renal; assay: NCI tumour cell line growth inhibition, 48 h
Quick reference for TGI among some compounds

compound: CC(C)[Si]1(C(C)C)OCC2OC(N3C(=O)NC(=O)C[C@@H]3C(O)c3ccccc3)CC2O[Si](C(C)C)(C(C)C)O1 (some centres not stated)
TGI: 13.4 µM
//
compound: CCC12CCCN(Cc3ccccc3)C1c1c(n(C)c3ccccc13)[C@H](C(=O)OC)C2 (some centres not stated)
TGI: > 239 µM
//
compound: CN(C(=O)c1ccccc1)C1CCCC(=O)CC1 (configuration not stated)
TGI: > 100 µM
//
compound: CN(C(=O)CC(=O)CP(=O)(c1ccccc1)c1ccccc1)c1ccccc1
TGI: > 100 µM
//
compound: CC(=O)[CH-]C(C)=O.CC(=O)[CH-]C(C)=O.[CH2-]CCCCCCC.[CH2-]CCCCCCC.[Sn+4]
TGI: 32.9 µM
//
compound: O=C(N/N=C\c1c(O)ccc2ccccc12)C1CC1
TGI: > 100 µM
//
compound: Cc1c(C(=O)O)n(-c2ccc(Cl)cc2)c2ncnc(N)c12
TGI: 39.5 µM
//
compound: CCN(CC)CCN1C=CC(C)C(C(=O)O)C1C(N)=O (configuration not stated)
TGI: > 100 µM
//
compound: Cn1cc(C2=C(c3cn(CCSC(=N)N)c4ccccc34)C(=O)NC2=O)c2ccccc21
TGI: 8.23 µM
//
compound: CCCCNc1nc(N)nc(Nc2ccc(Br)cc2)c1N=O
TGI: > 100 µM
//
compound: CN([O-])c1nc(N(C)[O-])nc(N2CCOCC2)n1.CN([O-])c1nc(N(C)[OH2+])nc(N2CCOCC2)n1.[Fe+3]
TGI: > 100 µM
//
compound: CCCCOC(=O)NC(Nc1ccc(S(N)(=O)=O)cc1)(C(F)(F)F)C(F)(F)F
TGI: > 100 µM
//
compound: NNC1=N/C(=C\c2ccccc2O)C(=O)N1
TGI: > 100 µM
//
compound: Cn1cc(NC(=O)[C@H]2CCC(N)=N2)cc1C(=O)NCCC(=N)N
TGI: > 100 µM
//
compound: CNC(=O)C(C)C1C(=O)/C(=C(O)/C=C\C(C)=C\C(C)C2OC3(C)OC(C=CC34CO4)C2C)C(=O)N1C1CCC(O)C(C)O1 (configuration not stated)
TGI: > 100 µM
//
compound: COC(=O)[C@@H](C[C@H](Cc1ccccc1)NC(=O)c1csc([C@@H](C[C@H](C(C)C)N(C)C(=O)[C@@H](NC(=O)[C@H]2CCCCN2C)C(C)C)OC(C)=O)n1)NC(=O)OCc1ccccc1
TGI: > 8.33 µM
//
compound: COc1ccc(C=Nc2c(O)ccc3ccccc23)cc1OC
TGI: > 100 µM
//
compound: CC(=O)N=C1C=C(NC(C)=O)C(=O)c2ccccc21
TGI: 5.46 µM
//
compound: Cn1c(=O)c2c(nc3sc4nc5ccccc5nc4n32)n(C)c1=O
TGI: > 100 µM
//
compound: c1ccc2cc(CN3CCC(C4CCN(Cc5ccc6ccccc6c5)CC4)CC3)ccc2c1
TGI: 8.51 µM
//
compound: Cc1nc2cc(-n3c(-c4ccc(F)cc4)nc4ccccc4c3=O)ccc2n1Cc1ccccc1
TGI: 4.26 µM
//
compound: COC(=O)[C@]12CSCN1C(=O)C(C(C)=O)=NN2C(=O)[C@](OC)(c1ccccc1)C(F)(F)F
TGI: > 100 µM
//
compound: Cc1cccc(C)c1NC(=O)C(=O)C(C#N)c1ccccc1Cl (configuration not stated)
TGI: > 100 µM
//
compound: CNC(=O)N(C1=NCC(C)S1)c1ccc(C)c(C)c1 (configuration not stated)
TGI: 8.31 µM
//
compound: FC(F)(F)c1cccc(Nc2nc3ccccc3nc2Nc2cccc(C(F)(F)F)c2)c1
TGI: 2.34 µM
//
compound: CCOC(=O)c1cc(NC(=O)N(CCC#N)CCN(C(=O)N[C@@H](Cc2ccccc2)C(=O)N[C@@H](CC(C)C)C(=O)NC)c2ccccc2)ccc1OC
TGI: 75.2 µM
//
compound: COc1cccc(NC(=O)CC(=O)N2NC(c3ccccc3)C(N=Nc3cccc(C(=O)O)c3)C2=O)c1 (configuration not stated)
TGI: > 100 µM

----------
test system: DU-145 prostate; test: NCI tumour cell line growth inhibition, 48 h; in the data active = GI50 below about 0.43 µM; inactive = the rest
Outcome codes: active, inactive

compound: Cn1cc(C2=C(c3cn(CCCO)c4ccccc34)C(=O)NC2=O)c2ccccc21
system.under.test: DU-145 prostate
cat: inactive
//
compound: Cc1c2cnccc2c(C)c2c1c1cc(CO)ccc1n2C
system.under.test: DU-145 prostate
cat: active
//
compound: CCOC(=O)c1cc2c(c3ccsc13)C1(C)CCC3c4ccc(OC)cc4CCC3C1C2 (stereo not given)
system.under.test: DU-145 prostate
cat: inactive
//
compound: Cc1ccc(-c2cc(C(=O)N3N=C(c4ccc(N)cc4)CC3c3ccc(Cl)cc3)c3ccccc3n2)cc1 (stereo not given)
system.under.test: DU-145 prostate
cat: inactive
//
compound: COc1cccc(/C=N/Nc2ncnc3c2cnn3-c2cccc(OC)c2)c1
system.under.test: DU-145 prostate
cat: inactive

Where do the numbers come from? From PubChem BioAssay (NCI).
